For each entry below, report its growth value.
- Test system: CAKI-1 renal
- Assay: NCI-60 one-dose screen, 48 h (100 = growth as untreated, 0 = no growth, -100 = all killed)
- Test Context: 10 µM unless noted
This is part of a sample that, as a whole, favours compounds with a hit. Of some 83,000 tested, about 20% had one in any assay.
Numbers only, in %.

# count of solved cases: 4
stdin: Quick one: growth for NC(=O)c1cccc(-n2ccc3cc(NC(=O)Nc4ccc(Cl)c(Cl)c4)ccc32)n1 ?
stdout: 57.6

stdin: Quick one: growth for COc1cc(/C=C/C(=O)C2=C(/C=C/c3ccc(O)c(OC)c3)NC(=O)NC2c2ccc(O)c(OC)c2)ccc1O (stereo not given) ?
stdout: 93.9

stdin: Quick one: growth for CCCCC(CCCC)(S(=O)(=O)CC)S(=O)(=O)CC ?
stdout: 93.6

stdin: Quick one: growth for O=C(CCc1nnc2sc(/C=C\c3ccccc3)nn12)c1nc2ccccc2[nH]1 ?
stdout: 93.4

We next turn to a different compound, shown below.
stdin: Quick one: growth for COC(=O)c1c2c(c(C)[n+]([O-])c1C)C(=O)C=C(NCc1ccc(F)cc1)C2=O ?
stdout: -0.887
